Test system: 233499-124-R-J3-PDC complex spheroid viability
PROTOCOL NOTES: Anticancer human tumor 233499-124-R-J3-PDC patient-derived colon adenocarcinoma cell line growth inhibition [CLK]
RUN CONDITIONS: curve of first compound; second compound 10 µM
pIC50: −log10 of the molar value.
Listed next: entries and their corresponding pIC50.

Given item CC(=O)O[C@H]1C(=O)[C@@]2(C)[C@H]([C@H](OC(=O)c3ccccc3)[C@]3(O)C[C@H](OC(=O)[C@H](O)[C@@H](NC(=O)c4ccccc4)c4ccccc4)C(C)=C1C3(C)C)[C@]1(OC(C)=O)CO[C@@H]1C[C@@H]2O + CNC(=O)c1ccc(Nc2nc(OC3CCCC3)c3c(-c4ccc5nc(C)oc5c4)c[nH]c3n2)c(OC)c1 , the value recorded as its pIC50 is < 5.00

Given item CCN1CCN(Cc2ccc(Nc3ncc(F)c(-c4cc(F)c5nc(C)n(C(C)C)c5c4)n3)nc2)CC1 + CNC(=O)c1ccc(Nc2nc(OC3CCCC3)c3c(-c4ccc5nc(C)oc5c4)c[nH]c3n2)c(OC)c1 , the value recorded as its pIC50 is < 6.00

Given item O=C(c1cc(Cc2n[nH]c(=O)c3ccccc23)ccc1F)N1CCN(C(=O)C2CC2)CC1 + CNC(=O)c1ccc(Nc2nc(OC3CCCC3)c3c(-c4ccc5nc(C)oc5c4)c[nH]c3n2)c(OC)c1 , the value recorded as its pIC50 is < 5.00

Given item C=C(F)C(=O)N1CCN(c2nc(OCC3CCCN3C)nc3c2CCN(c2cccc4cccc(Cl)c24)C3)CC1CC#N (stereo not given) + CN1CCN(c2cc(C(=O)Nc3cc4cc(-c5cnn(C)c5)ccc4cn3)ccn2)CC1 , the value recorded as its pIC50 is > 7.50

Given item C=CC(=O)N1CCN(c2nc(=O)n(-c3c(C)ccnc3C(C)C)c3nc(-c4c(O)cccc4F)c(F)cc23)C(C)C1 (stereo not given) + CN1CCN(c2cc(C(=O)Nc3cc4cc(-c5cnn(C)c5)ccc4cn3)ccn2)CC1 , the value recorded as its pIC50 is > 7.50

###

System: 233499-124-R-J3-PDC complex spheroid viability
PROTOCOL NOTES: Anticancer human tumor 233499-124-R-J3-PDC cell line growth inhibition [CLK];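 note: spheroids exposed to the drug combinations for seven days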
RUN CONDITIONS: curve of first compound; second compound 10 µM
MEASURE NAME: IC50

NC(=O)C(=Cn1cnc(-c2cc(C(F)(F)F)cc(C(F)(F)F)c2)n1)c1cncnc1 + CN1CCN(c2cc(C(=O)Nc3cc4cc(-c5cnn(C)c5)ccc4cn3)ccn2)CC1 :: < 9.49 nM
CC1COCCN1c1cc(C2(S(C)(=N)=O)CC2)nc(-c2ccnc3[nH]ccc23)n1 (stereo not drawn) + CN1CCN(c2cc(C(=O)Nc3cc4cc(-c5cnn(C)c5)ccc4cn3)ccn2)CC1 :: < 31.6 nM

Given item COc1ccc([C@@H](O)c2cc(-c3ncnc4cc(N5CCOCC5)ccc34)c(F)cc2Cl)nn1 + CN1CCN(c2cc(C(=O)Nc3cc4cc(-c5cnn(C)c5)ccc4cn3)ccn2)CC1 , the value recorded as its IC50 is < 31.6 nM

###

Tested on: 233499-124-R-J3-PDC complex spheroid viability
PROTOCOL NOTES: Anticancer human tumor 233499-124-R-J3-PDC cell line growth inhibition [CLK];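 note: spheroids exposed to the drug combinations for seven days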;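 for viability, T/C: percent viability relative to DMSO vehicle control wells taken as 100%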
RUN CONDITIONS: second compound 0.316 µM; first compound 0.1 µM; stronger effect = lower value
Flag rule - viability, T/C less than 90% flags Met; the remaining entries get Not met.

Solved entries:
CC(=O)O[C@H]1C(=O)[C@@]2(C)[C@H]([C@H](OC(=O)c3ccccc3)[C@]3(O)C[C@H](OC(=O)[C@H](O)[C@@H](NC(=O)c4ccccc4)c4ccccc4)C(C)=C1C3(C)C)[C@]1(OC(C)=O)CO[C@@H]1C[C@@H]2O + CN1CCN(c2cc(C(=O)Nc3cc4cc(-c5cnn(C)c5)ccc4cn3)ccn2)CC1 :: Met
O=C(c1cc(Cc2n[nH]c(=O)c3ccccc23)ccc1F)N1CCN(C(=O)C2CC2)CC1 + CNC(=O)c1ccc(Nc2nc(OC3CCCC3)c3c(-c4ccc5nc(C)oc5c4)c[nH]c3n2)c(OC)c1 :: Met
Cn1ncnc1[C@H]1c2n[nH]c(=O)c3cc(F)cc(c23)N[C@@H]1c1ccc(F)cc1 + CNC(=O)c1ccc(Nc2nc(OC3CCCC3)c3c(-c4ccc5nc(C)oc5c4)c[nH]c3n2)c(OC)c1 :: Met
Nc1ccccc1NC(=O)c1ccc(CNC(=O)OCc2cccnc2)cc1 + CN1CCN(c2cc(C(=O)Nc3cc4cc(-c5cnn(C)c5)ccc4cn3)ccn2)CC1 :: Met
Cn1ncnc1[C@H]1c2n[nH]c(=O)c3cc(F)cc(c23)N[C@@H]1c1ccc(F)cc1 + CN1CCN(c2cc(C(=O)Nc3cc4cc(-c5cnn(C)c5)ccc4cn3)ccn2)CC1 :: Not met

Q) Is it true that viability, T/C reported for CC(CO)NC(=O)c1cc(-c2ccc(Cl)cc2)nn(-c2cnn(C)c2)c1=O (centres undefined) + CN1CCN(c2cc(C(=O)Nc3cc4cc(-c5cnn(C)c5)ccc4cn3)ccn2)CC1 is less than 90%?
A) Not met

Q) Is it true that viability, T/C reported for CCCS(=O)(=O)Nc1ccc(F)c(C(=O)c2c[nH]c3ncc(-c4ccc(Cl)cc4)cc23)c1F + CN1CCN(c2cc(C(=O)Nc3cc4cc(-c5cnn(C)c5)ccc4cn3)ccn2)CC1 is less than 90%?
A) Not met

Q) Is it true that viability, T/C reported for COc1cccc2c1C(=O)c1c(O)c3c(c(O)c1C2=O)CC(O)(C(=O)CO)CC3OC1CC(N)C(O)C(C)O1 (centres undefined) + CNC(=O)c1ccc(Nc2nc(OC3CCCC3)c3c(-c4ccc5nc(C)oc5c4)c[nH]c3n2)c(OC)c1 is less than 90%?
A) Met
